Please go through the items and note down their binding signal.
target: AGO2 T357M (Homo sapiens, UniProt Q9UKV8 1-859, T357M;S387D;S824A;S828D;S831D;S834A); assay: RNA Bind-n-Seq (nitrocellulose filter binding and sequencing); miR-122 guide loaded in AGO2; 60 min incubation; 30 mM Tris pH 8.0, 100 mM potassium acetate, 2 mM magnesium acetate, 0.5 mM TCEP, 0.005% NP-40, 0.01 mg/ml yeast tRNA; 3 nM AGO2-miR-122, 100 nM RNA library; 60; high values mean tight binding; settings: protein: recombinant; tags: His6 (N-terminal, pFastBac HTA)
Sequence (Q9UKV8 whole entry T357M/S387D/S824A/S828D/S831D/S834A): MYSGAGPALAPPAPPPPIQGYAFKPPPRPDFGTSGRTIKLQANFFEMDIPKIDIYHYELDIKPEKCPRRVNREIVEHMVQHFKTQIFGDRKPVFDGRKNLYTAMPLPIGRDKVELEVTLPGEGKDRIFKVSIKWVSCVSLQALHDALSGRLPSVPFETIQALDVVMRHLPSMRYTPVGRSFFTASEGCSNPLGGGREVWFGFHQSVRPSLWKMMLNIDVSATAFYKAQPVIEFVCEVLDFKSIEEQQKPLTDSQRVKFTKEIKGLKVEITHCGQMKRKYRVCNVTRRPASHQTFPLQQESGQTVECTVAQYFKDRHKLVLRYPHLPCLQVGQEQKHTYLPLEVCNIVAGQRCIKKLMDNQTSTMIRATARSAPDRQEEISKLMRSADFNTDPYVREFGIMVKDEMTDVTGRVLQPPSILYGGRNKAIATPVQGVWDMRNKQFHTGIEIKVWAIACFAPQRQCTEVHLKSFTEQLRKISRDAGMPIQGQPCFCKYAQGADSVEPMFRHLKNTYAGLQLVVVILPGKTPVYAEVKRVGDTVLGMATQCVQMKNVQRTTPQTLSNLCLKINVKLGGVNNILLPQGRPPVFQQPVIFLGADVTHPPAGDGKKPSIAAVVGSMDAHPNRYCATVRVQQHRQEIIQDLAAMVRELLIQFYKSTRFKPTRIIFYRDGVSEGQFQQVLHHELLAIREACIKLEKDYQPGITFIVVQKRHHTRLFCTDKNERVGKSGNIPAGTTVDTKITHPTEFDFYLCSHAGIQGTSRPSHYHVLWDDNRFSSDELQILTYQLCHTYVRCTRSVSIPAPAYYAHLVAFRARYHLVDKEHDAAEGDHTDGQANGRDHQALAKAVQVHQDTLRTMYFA

The cases that follow already have their binding signal on record.
# Binder, binding signal
measured = [
    ("GTGCCTCA (ssRNA, constant regions annealed to DNA blockers; guide miR-122 5' phosphate) RNA 1: GAGUUCUACAGUCCGACGAUCCCAACGUGCCUCACACCUGGAAUUCUCGGGUGCCAA RNA 2: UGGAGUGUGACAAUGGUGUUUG DNA 1: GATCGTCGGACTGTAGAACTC DNA 2: TTGGCACCCGAGAATTCCA", "0.687 fold enrichment over input"),
    ("GCGTCCCG (ssRNA, constant regions annealed to DNA blockers; guide miR-122 5' phosphate) RNA 1: GAGUUCUACAGUCCGACGAUCCCAACGCGUCCCGCACCUGGAAUUCUCGGGUGCCAA RNA 2: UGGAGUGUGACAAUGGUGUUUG DNA 1: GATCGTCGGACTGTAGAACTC DNA 2: TTGGCACCCGAGAATTCCA", "0.539 fold enrichment over input"),
    ("ACGTTCCG (ssRNA, constant regions annealed to DNA blockers; guide miR-122 5' phosphate) RNA 1: GAGUUCUACAGUCCGACGAUCCCAACACGUUCCGCACCUGGAAUUCUCGGGUGCCAA RNA 2: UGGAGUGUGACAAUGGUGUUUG DNA 1: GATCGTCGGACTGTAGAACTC DNA 2: TTGGCACCCGAGAATTCCA", "0.44 fold enrichment over input"),
    ("ATGTCCCG (ssRNA, constant regions annealed to DNA blockers; guide miR-122 5' phosphate) RNA 1: GAGUUCUACAGUCCGACGAUCCCAACAUGUCCCGCACCUGGAAUUCUCGGGUGCCAA RNA 2: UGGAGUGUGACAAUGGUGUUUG DNA 1: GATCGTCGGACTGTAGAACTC DNA 2: TTGGCACCCGAGAATTCCA", "0.416 fold enrichment over input"),
    ("ACATTTTG (ssRNA, constant regions annealed to DNA blockers; guide miR-122 5' phosphate) RNA 1: GAGUUCUACAGUCCGACGAUCCCAACACAUUUUGCACCUGGAAUUCUCGGGUGCCAA RNA 2: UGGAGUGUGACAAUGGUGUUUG DNA 1: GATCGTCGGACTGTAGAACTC DNA 2: TTGGCACCCGAGAATTCCA", "0.537 fold enrichment over input"),
    ("ATGCTCCA (ssRNA, constant regions annealed to DNA blockers; guide miR-122 5' phosphate) RNA 1: GAGUUCUACAGUCCGACGAUCCCAACAUGCUCCACACCUGGAAUUCUCGGGUGCCAA RNA 2: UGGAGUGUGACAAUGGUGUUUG DNA 1: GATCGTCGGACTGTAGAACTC DNA 2: TTGGCACCCGAGAATTCCA", "0.765 fold enrichment over input"),
    ("GCGCCTCA (ssRNA, constant regions annealed to DNA blockers; guide miR-122 5' phosphate) RNA 1: GAGUUCUACAGUCCGACGAUCCCAACGCGCCUCACACCUGGAAUUCUCGGGUGCCAA RNA 2: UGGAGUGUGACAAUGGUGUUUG DNA 1: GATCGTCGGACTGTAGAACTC DNA 2: TTGGCACCCGAGAATTCCA", "0.741 fold enrichment over input"),
    ("ATGCCCTG (ssRNA, constant regions annealed to DNA blockers; guide miR-122 5' phosphate) RNA 1: GAGUUCUACAGUCCGACGAUCCCAACAUGCCCUGCACCUGGAAUUCUCGGGUGCCAA RNA 2: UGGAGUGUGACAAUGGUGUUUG DNA 1: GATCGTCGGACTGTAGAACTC DNA 2: TTGGCACCCGAGAATTCCA", "0.463 fold enrichment over input"),
    ("ATATCCTG (ssRNA, constant regions annealed to DNA blockers; guide miR-122 5' phosphate) RNA 1: GAGUUCUACAGUCCGACGAUCCCAACAUAUCCUGCACCUGGAAUUCUCGGGUGCCAA RNA 2: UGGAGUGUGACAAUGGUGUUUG DNA 1: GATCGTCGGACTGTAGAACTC DNA 2: TTGGCACCCGAGAATTCCA", "0.475 fold enrichment over input"),
    ("ACGCCTTA (ssRNA, constant regions annealed to DNA blockers; guide miR-122 5' phosphate) RNA 1: GAGUUCUACAGUCCGACGAUCCCAACACGCCUUACACCUGGAAUUCUCGGGUGCCAA RNA 2: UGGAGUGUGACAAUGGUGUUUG DNA 1: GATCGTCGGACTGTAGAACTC DNA 2: TTGGCACCCGAGAATTCCA", "0.625 fold enrichment over input"),
]

Fill in binding signal for each of the 5 binders listed.
1. GCGCTCTG (ssRNA, constant regions annealed to DNA blockers; guide miR-122 5' phosphate) RNA 1: GAGUUCUACAGUCCGACGAUCCCAACGCGCUCUGCACCUGGAAUUCUCGGGUGCCAA RNA 2: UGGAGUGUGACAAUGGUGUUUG DNA 1: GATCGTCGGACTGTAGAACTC DNA 2: TTGGCACCCGAGAATTCCA
2. GCACCTCG (ssRNA, constant regions annealed to DNA blockers; guide miR-122 5' phosphate) RNA 1: GAGUUCUACAGUCCGACGAUCCCAACGCACCUCGCACCUGGAAUUCUCGGGUGCCAA RNA 2: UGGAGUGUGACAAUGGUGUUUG DNA 1: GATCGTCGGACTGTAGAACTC DNA 2: TTGGCACCCGAGAATTCCA
3. GCATTCCA (ssRNA, constant regions annealed to DNA blockers; guide miR-122 5' phosphate) RNA 1: GAGUUCUACAGUCCGACGAUCCCAACGCAUUCCACACCUGGAAUUCUCGGGUGCCAA RNA 2: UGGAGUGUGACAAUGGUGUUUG DNA 1: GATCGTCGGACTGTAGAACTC DNA 2: TTGGCACCCGAGAATTCCA
4. ACACCCTG (ssRNA, constant regions annealed to DNA blockers; guide miR-122 5' phosphate) RNA 1: GAGUUCUACAGUCCGACGAUCCCAACACACCCUGCACCUGGAAUUCUCGGGUGCCAA RNA 2: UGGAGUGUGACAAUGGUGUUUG DNA 1: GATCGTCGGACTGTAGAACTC DNA 2: TTGGCACCCGAGAATTCCA
5. ATATTTCG (ssRNA, constant regions annealed to DNA blockers; guide miR-122 5' phosphate) RNA 1: GAGUUCUACAGUCCGACGAUCCCAACAUAUUUCGCACCUGGAAUUCUCGGGUGCCAA RNA 2: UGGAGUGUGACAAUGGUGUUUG DNA 1: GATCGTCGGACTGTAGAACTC DNA 2: TTGGCACCCGAGAATTCCA

Outgoing:
["0.565 fold enrichment over input", "0.508 fold enrichment over input", "0.65 fold enrichment over input", "0.558 fold enrichment over input", "0.6 fold enrichment over input"]
